Target: T1, UNK ZnF1-3 (human, UniProt Q9C0B0 31-174)
T1 sequence: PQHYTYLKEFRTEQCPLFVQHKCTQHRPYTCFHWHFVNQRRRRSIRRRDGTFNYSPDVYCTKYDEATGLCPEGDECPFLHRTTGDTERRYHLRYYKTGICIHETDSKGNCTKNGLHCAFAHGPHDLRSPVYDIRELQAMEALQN
Assay: nsRBNS (natural sequence RNA bind-n-seq); RBNS binding buffer (assumed for nsRBNS): 25 mM Tris pH 7.5, 150 mM KCl, 3 mM MgCl2, 0.01% Triton X-100, 500 ug/ml BSA, 20 U/ml SUPERase-In, 4 C; UNK is unkempt and MSI1 is Musashi-1; names of the RNAs are library labels; protein concentration not given here; high values mean tight binding
Over roughly 24,000 sequences, “enrichment r” has its median near 0.99; the highest 2% begin near 3.7. A selection follows.
binding signal listing for selected binders.
Endpoint name: binding signal

binder="18138343_18138463_2469_3pUTR_ENSMUSG00000026740_ENSMUST00000166495|mouse|control|control (ssRNA) RNA: GGGAGUUCUACAGUCCGACGAUCUUAGAUCCAUGUAUUCAUGUGCAUGUGUCUAUGUGGGCUCGGAUGUGUGUGCUGUACCACAAUAUGAAUGCAGAGGUCAGAGGACAGCUCCUGUGAACAUGUGCUUGCUGGAGAGUGAGUCAACAGAGGAUUGAGCAUCA" assay_value="1.27 enrichment R"
binder="chr4:62795864:62795865:+_ENSMUSG00000028358_ENSMUST00000107415|mus_hu|motif|central (ssRNA) RNA: GGGAGUUCUACAGUCCGACGAUCCAGAGUCUAAAUCAAAUCUGAAGAAACAAAAUGAACCCCCAAACAAGGUAAAAAUUGCGGAAAUGUUAGGGAGAGAAAUUAUUAGGGAGUGGAGACAGUAUCUAUACUUCUCUGAAAAAUCAACAGAGGAUUGAGCAUCA" assay_value="1.32 enrichment R"
binder="chr9:66219764:66219765:+_ENSMUSG00000038664_ENSMUST00000042824|mus_mus|motif|central (ssRNA) RNA: GGGAGUUCUACAGUCCGACGAUCUUCAAAAUCAGGCAACUGUGGUCCUUUGAGGCAUAAAACCUGUUGAGGCAAAGGUACGGCUUCCUUAUUGCUGAUCAGUUUAGAAUACAAAACGGUAACUCCCUCUCUUGUAGCAAUAGACAACAGAGGAUUGAGCAUCA" assay_value="0.879 enrichment R"
